target: hSCN3A sodium channels (Homo sapiens); construct: expressed in transfected cells; test: hSCN3A electrophysiology, whole-cell patch-clamp or PatchXpress 7000, estimated IC-50 (Table B); type: cell-based; conditions: estimated IC-50; hSCN3A cells, whole-cell patch-clamp or PatchXpress 7000; read-out: SCN3A EIC-50
Provide the recorded pIC50 for the entries that follow.
One number for each entry, as −log10 of the molar value.

Examples with answers:
compound	pIC50
O=C(NCc1ccc(Cl)c(F)c1)c1ccc(S(=O)(=O)Nc2ncc(Cl)s2)c(Cl)c1 [Example 369]	5.21
O=C(c1ccc(S(=O)(=O)Nc2nccs2)cc1)N1CCCC1Cc1cccc(Cl)c1 (centres unmarked) [Example 279]	5.66
Cc1csc(NS(=O)(=O)c2ccc(C(=O)NCc3ccc(C(F)(F)F)cc3)cc2)n1 [Example 391]	5.87
Cc1cc(NC(=O)c2ccc(S(=O)(=O)Nc3nccs3)cc2)cnc1C [Example 175]	5.39
O=C(c1ccc(S(=O)(=O)Nc2nccs2)cc1)N1CC[C@H](Oc2ccccc2Cl)C1 [Example 200]	5.44

# per-item lookup of pIC50; items listed below
1. N#Cc1ccc(CNC(=O)c2ccc(S(=O)(=O)Nc3nccs3)cc2)cc1 [Example 416]
2. O=C(c1ccc(S(=O)(=O)Nc2nccs2)cc1)N1CCOC(COc2ccc(F)cc2Cl)C1 (centres unmarked) [Example 266]

[6.07, 5.78]

* * *

biological target: hSCN3A sodium channels (Homo sapiens, UniProt Q9NY46); construct: expressed in transfected cells; assay: hSCN3A electrophysiology, Ionworks Quattro automated platform (Table C); assay type: cell-based; conditions: Emax of dose-response curve, inactivated state
Sequence (Q9NY46 whole entry): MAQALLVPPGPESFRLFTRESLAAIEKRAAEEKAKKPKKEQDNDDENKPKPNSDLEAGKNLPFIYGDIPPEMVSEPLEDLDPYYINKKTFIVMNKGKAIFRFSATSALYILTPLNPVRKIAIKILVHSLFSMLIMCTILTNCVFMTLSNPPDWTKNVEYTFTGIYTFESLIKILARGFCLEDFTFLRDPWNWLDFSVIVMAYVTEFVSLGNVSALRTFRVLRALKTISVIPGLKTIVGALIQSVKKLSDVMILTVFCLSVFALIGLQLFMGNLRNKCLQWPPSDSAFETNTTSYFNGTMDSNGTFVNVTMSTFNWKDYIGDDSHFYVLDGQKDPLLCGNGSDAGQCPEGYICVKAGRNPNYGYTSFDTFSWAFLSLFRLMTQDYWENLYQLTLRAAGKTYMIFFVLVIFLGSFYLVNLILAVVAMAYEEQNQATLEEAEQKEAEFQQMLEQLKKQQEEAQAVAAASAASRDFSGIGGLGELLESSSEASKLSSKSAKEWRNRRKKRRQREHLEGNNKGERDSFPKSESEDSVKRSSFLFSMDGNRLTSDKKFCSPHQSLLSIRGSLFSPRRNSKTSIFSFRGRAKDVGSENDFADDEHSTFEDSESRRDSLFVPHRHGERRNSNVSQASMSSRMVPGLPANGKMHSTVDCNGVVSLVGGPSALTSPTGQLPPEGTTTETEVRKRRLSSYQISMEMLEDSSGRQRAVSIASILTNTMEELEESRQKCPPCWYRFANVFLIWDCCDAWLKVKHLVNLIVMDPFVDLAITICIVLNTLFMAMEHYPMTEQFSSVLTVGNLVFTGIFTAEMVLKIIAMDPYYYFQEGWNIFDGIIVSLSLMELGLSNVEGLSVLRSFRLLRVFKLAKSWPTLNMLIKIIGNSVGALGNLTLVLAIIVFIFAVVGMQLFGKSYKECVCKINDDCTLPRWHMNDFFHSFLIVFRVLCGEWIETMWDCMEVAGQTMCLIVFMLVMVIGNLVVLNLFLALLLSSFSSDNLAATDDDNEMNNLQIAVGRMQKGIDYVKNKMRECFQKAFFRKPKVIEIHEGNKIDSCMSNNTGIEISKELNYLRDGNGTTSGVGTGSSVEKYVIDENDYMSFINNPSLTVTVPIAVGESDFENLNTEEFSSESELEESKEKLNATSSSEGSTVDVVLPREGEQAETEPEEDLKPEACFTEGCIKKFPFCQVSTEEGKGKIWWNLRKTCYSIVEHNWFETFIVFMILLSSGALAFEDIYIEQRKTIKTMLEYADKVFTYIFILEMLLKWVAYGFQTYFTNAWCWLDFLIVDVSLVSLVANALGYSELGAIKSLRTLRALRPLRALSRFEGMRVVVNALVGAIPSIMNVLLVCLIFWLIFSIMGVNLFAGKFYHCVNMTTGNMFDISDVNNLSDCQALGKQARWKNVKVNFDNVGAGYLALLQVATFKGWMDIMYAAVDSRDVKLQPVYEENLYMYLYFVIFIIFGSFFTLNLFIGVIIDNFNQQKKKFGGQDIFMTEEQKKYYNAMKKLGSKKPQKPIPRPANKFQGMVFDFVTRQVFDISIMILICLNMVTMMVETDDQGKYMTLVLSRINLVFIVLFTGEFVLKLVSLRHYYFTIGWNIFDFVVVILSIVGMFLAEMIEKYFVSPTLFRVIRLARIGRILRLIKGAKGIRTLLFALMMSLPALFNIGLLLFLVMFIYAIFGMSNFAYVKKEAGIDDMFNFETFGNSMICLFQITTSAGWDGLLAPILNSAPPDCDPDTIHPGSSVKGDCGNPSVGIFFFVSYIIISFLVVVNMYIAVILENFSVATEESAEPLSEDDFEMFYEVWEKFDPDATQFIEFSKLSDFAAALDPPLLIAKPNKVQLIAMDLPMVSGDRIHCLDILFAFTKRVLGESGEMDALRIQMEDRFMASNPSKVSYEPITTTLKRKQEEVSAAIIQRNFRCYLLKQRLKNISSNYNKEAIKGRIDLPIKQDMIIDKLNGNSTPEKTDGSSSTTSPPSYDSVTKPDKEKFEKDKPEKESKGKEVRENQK
property-measured: SCN3A INHIB INACT DRC EP IWQ EMAX
One number for each entry.

compound	experimental-system	experimental-value
O=C(c1ccc(S(=O)(=O)Nc2nccs2)cc1)N1CCCC(COc2cc(F)cc(F)c2)C1 (stereo not shown)	hSCN3A sodium channels (Homo sapiens, UniProt Q9NY46)	52.4

Hey, can you go through the list below and give me SCN3A INHIB INACT DRC EP IWQ EMAX for every item?
1. O=C(c1ccc(S(=O)(=O)Nc2nccs2)cc1)N1CCOC(COc2cccc(Cl)c2)C1 (stereo not shown)
2. COc1ccc(CC2CCCN(C(=O)c3ccc(S(=O)(=O)Nc4nccs4)cc3)C2)cc1 (stereo not shown)
3. O=C(c1ccc(S(=O)(=O)Nc2nccs2)cc1)N1CCSCC1c1ccc(F)cc1 (stereo not shown)
4. O=C(c1ccc(S(=O)(=O)Nc2nccs2)cc1)N1CCCC1c1ccccc1Cl (stereo not shown)
5. O=C(c1ccc(S(=O)(=O)Nc2nccs2)cc1)N1CCC(CCc2ccccc2)C1 (stereo not shown)
6. N#Cc1cccc(OC2CCCN(C(=O)c3ccc(S(=O)(=O)Nc4nccs4)cc3)C2)c1 (stereo not shown)

1: 43.1; 2: 53.7; 3: 46.3; 4: 64.7; 5: 53; 6: 32.2

* * *

biological target: hSCN3A sodium channels (Homo sapiens); construct: expressed in transfected cells; assay: hSCN3A electrophysiology, whole-cell patch-clamp or PatchXpress 7000, estimated IC-50 (Table B); assay type: cell-based; settings: estimated IC-50; hSCN3A cells, whole-cell patch-clamp or PatchXpress 7000; read-out: SCN3A EIC-50
property-measured: IC50 (µM)
Numbers only, in µM.

Consider the worked cases shown below.
compound	experimental-system	IC50 [µM]
O=C(NCc1ccc(C(F)(F)F)c(Cl)c1)c1ccc(S(=O)(=O)Nc2nccs2)c(F)c1	hSCN3A sodium channels (Homo sapiens)	0.04
O=C(NCc1ccc(C(F)(F)F)cc1)c1ccc(S(=O)(=O)Nc2ncc(Cl)s2)c(Cl)c1	hSCN3A sodium channels (Homo sapiens)	0.49
O=C(NCc1ccc(C(F)(F)F)c(Cl)c1)c1ccc(S(=O)(=O)Nc2ncns2)cc1	hSCN3A sodium channels (Homo sapiens)	0.03
CC(NC(=O)c1ccc(S(=O)(=O)Nc2ncns2)c(F)c1)c1ccc(C(F)(F)F)cc1 (stereo not shown)	hSCN3A sodium channels (Homo sapiens)	2.66
Cn1cc(NS(=O)(=O)c2ccc(C(=O)NCc3ccc(C(F)(F)F)cc3)cc2)cn1	hSCN3A sodium channels (Homo sapiens)	1.51
O=C(NCCOc1cccc(Cl)c1)c1ccc(S(=O)(=O)Nc2nccs2)cc1	hSCN3A sodium channels (Homo sapiens)	1.18

Quick one: give me IC50 for each item below, same order please.
1. O=C(NCc1ccc(C(F)(F)F)cc1F)c1ccc(S(=O)(=O)Nc2nccs2)cc1
2. O=C(NCc1ccc(C(F)(F)F)cc1)c1ccc(S(=O)(=O)Nc2ncc(Cl)s2)cc1Cl
3. Cc1cc(CC(NC(=O)c2ccc(S(=O)(=O)Nc3nccs3)cc2)c2cccc(Cl)c2)on1 (stereo not shown)
4. O=C(NCc1ccc(C(F)(F)F)c(F)c1)c1ccc(S(=O)(=O)Nc2ncns2)cc1
5. O=C(NCc1ccc(C(F)(F)F)c(F)c1)c1ccc(S(=O)(=O)Nc2ncc(Cl)s2)cc1

[0.22, 1.07, 4.26, 0.19, 0.07]

Items follow; give IC50 for each.
1. C[C@H]1CN(C(=O)c2ccc(S(=O)(=O)Nc3nccs3)cc2)C[C@@H]1COc1ccccc1
2. Cc1cccc(OC2CCCN(C(=O)c3ccc(S(=O)(=O)Nc4nccs4)cc3)C2)c1 (stereo not shown)
3. O=C(NCc1ccc(F)c(C(F)(F)F)c1)c1ccc(S(=O)(=O)Nc2nccs2)c(Cl)c1

[1.15, 6.58, 1.39]

Consider the compound O=C(NCc1ccc(OC(F)(F)F)c(F)c1)c1ccc(S(=O)(=O)Nc2ncc(Cl)s2)cc1Cl and give its recorded IC50.
0.39

* * *

biological target: hSCN3A sodium channels (Homo sapiens, UniProt Q9NY46); construct: expressed in transfected cells; assay: hSCN3A electrophysiology, whole-cell patch-clamp or PatchXpress 7000, estimated IC-50 (Table B); assay type: cell-based; settings: estimated IC-50; hSCN3A cells, whole-cell patch-clamp or PatchXpress 7000; read-out: SCN3A EIC-50
I'd appreciate it if you could supply IC50 values for the items below.
Numbers only, in nM.

Consider the worked cases shown below.
molecule	IC50 [nM]
COc1ccc(CNC(=O)c2ccc(S(=O)(=O)Nc3nccs3)cc2)cc1Cl [Example 405]	60
O=C(NCc1ccc(OC(F)(F)F)cc1)c1ccc(S(=O)(=O)Nc2ncc(Cl)s2)cc1F [Example 360]	160
Cc1ccc(OC2CCCN(C(=O)c3ccc(S(=O)(=O)Nc4nccs4)cc3)C2)cc1 (stereo not drawn) [Example 249]	1660
O=C(NCc1cccc(C(F)(F)F)c1)c1ccc(S(=O)(=O)Nc2ncc(Cl)s2)cc1F [Example 354]	210
O=C(NCc1cccc(F)c1)c1ccc(S(=O)(=O)Nc2nccs2)cc1 [Example 90]	1660
COc1ccccc1CCNC(=O)c1ccc(S(=O)(=O)Nc2nccs2)cc1 [Example 165]	4180

Here are 5 molecules. What values of IC50 were reported for them?
1. O=C(NCc1ccc(C(F)(F)F)c(F)c1)c1ccc(S(=O)(=O)Nc2ncns2)c(F)c1 [Example 319]
2. O=C(NCc1ccc(OC(F)(F)F)c(F)c1)c1ccc(S(=O)(=O)Nc2ncc(Cl)s2)cc1 [Example 38]
3. O=C(NCc1ccc(C(F)(F)F)cc1)c1ccc(S(=O)(=O)Nc2ncc(Cl)s2)cn1 [Example 344]
4. CC(C)(C)CCNC(=O)c1ccc(S(=O)(=O)Nc2nccs2)cc1 [Example 418]
5. CC(NC(=O)c1ccc(S(=O)(=O)Nc2ncns2)cc1)c1ccc(C(F)(F)F)cc1 (stereo not drawn) [Example 322]

70
60
520
2740
340

Below are 7 molecules. Give each one its IC50.
1. O=C(NCc1ccc(F)c(C(F)(F)F)c1)c1ccc(S(=O)(=O)Nc2nccs2)cc1F [Example 336]
2. O=C(NCc1ccc(C(F)(F)F)cc1)c1ccc(S(=O)(=O)Nc2nccs2)cn1 [Example 342]
3. O=C(NCc1ccc(C(F)(F)F)cc1)c1ccc(S(=O)(=O)Nc2nccs2)c(Cl)c1 [Example 287]
4. O=C(NCc1cccs1)c1ccc(S(=O)(=O)Nc2nccs2)cc1 [Example 386]
5. O=C(NCc1ccc(OC(F)(F)F)cc1)c1ccc(S(=O)(=O)Nc2nccs2)c(F)c1 [Example 301]
6. N#Cc1ccc(OC2CCCN(C(=O)c3ccc(S(=O)(=O)Nc4nccs4)cc3)C2)cc1F (stereo not drawn) [Example 193]
7. O=C(NCc1ccc(Cl)c(Cl)c1)c1ccc(S(=O)(=O)Nc2ncc(Cl)s2)c(F)c1 [Example 311]

1. 240
2. 510
3. 220
4. 3410
5. 180
6. 3270
7. 60

For each entry beneath this line, provide reported IC50.
1. O=C(NCc1ccc(C(F)(F)F)c(F)c1)c1ccc(S(=O)(=O)Nc2ncc(Cl)s2)cc1F [Example 356]
2. O=C(c1ccc(S(=O)(=O)Nc2nccs2)cc1)N1CCO[C@H]2Cc3ccccc3[C@H]21 [Example 52]
3. Cc1ccc(Cl)cc1CNC(=O)c1ccc(S(=O)(=O)Nc2nccs2)cc1 [Example 64]
4. O=C(NCc1ccc(C(F)(F)F)c(Cl)c1)c1ccc(S(=O)(=O)Nc2ncc(Cl)s2)cc1 [Example 30]

1: 210; 2: 2910; 3: 450; 4: 30
